Sourced from paper PMC11931385

- measurement target: T1, Rb^P Q504E (human, UniProt P06400 380-788, Q504E)
- T1 construct: also called variant 19
- T1 sequence (looked up): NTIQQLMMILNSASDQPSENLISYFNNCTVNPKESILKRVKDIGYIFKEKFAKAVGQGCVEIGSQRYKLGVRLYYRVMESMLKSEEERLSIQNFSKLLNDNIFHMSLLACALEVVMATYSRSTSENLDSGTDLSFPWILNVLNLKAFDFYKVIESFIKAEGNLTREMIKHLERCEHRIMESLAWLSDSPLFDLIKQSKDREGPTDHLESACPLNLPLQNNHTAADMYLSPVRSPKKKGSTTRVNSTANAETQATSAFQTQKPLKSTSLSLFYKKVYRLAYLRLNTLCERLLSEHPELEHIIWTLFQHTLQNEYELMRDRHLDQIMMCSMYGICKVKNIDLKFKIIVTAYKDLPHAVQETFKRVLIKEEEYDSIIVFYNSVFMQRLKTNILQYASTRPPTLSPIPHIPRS
- experiment: fluorescence polarisation; 25 °C; unlabeled Rb^P titrated against 1.5 nM TMR-E2F1^TD or 7.5 nM TMR-E7^LxCxE; 25 mM Tris pH 8.0, 200 mM NaCl, 1 mM DTT, 0.1% Tween-20; 2 min incubation; quadratic fit; apparent Kd for the variants, Kd for WT
- run parameters: both partners purified
No end group written: not given here. TMR = tetramethyl rhodamine dye
The entries below come with measured Kd values attached.
Quick reminder: number only, in nM, skip the unit.

DLYCYEQLN (also: TMR label, position not given here, source: synthetic peptide, bought: GenScript) [TMR-E7^LxCxE, LxCxE peptide of the E7 oncoprotein from HPV]: 5

## Task Record request: Kd value, item {TMR}-GEGIRDLFDCDFGDLTPLD (also called E2F^TD; source: synthetic peptide, bought: GenScript) [TMR-E2F1^TD, peptide of the E2F1 transactivation domain]
## Result 18
